Value source: patent US8173693B2

# Test system: Human colorectal adenocarcinoma HT-29 cells
# measurement.description: SRB assay
# Assay type: cell-based
# study.conditions: 48 hr
So I've got a bunch of molecules here, and I need their IC50 values.

Tell me the measured IC50 of COc1ccc(S(=O)(=O)N(C)c2cccc3c2[nH]c2c(C)ccc(C)c23)cc1 [Compound 15c] , please. > 10 µM

Tell me the measured IC50 of O=S(=O)(Nc1cccc2c1[nH]c1ccccc12)c1cccc(C(F)(F)F)c1 [Compound 21b] , please. > 10 µM

Tell me the measured IC50 of Cc1ccc(C)c2c1[nH]c1c(NS(=O)(=O)c3cccc(C(F)(F)F)c3)cccc12 , please. > 10 µM
